Entry source: PubChem BioAssay AID1919009

Tested on: K24384-001-R-PDC complex spheroid growth;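 note: percent of DMSO vehicle-treated spheroid viability set as 100%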
run_description: Anticancer human tumor K24384-001-R-PDC patient-derived pancreatic adenocarcinoma cell line growth inhibition [AhR]
recorded_conditions: second compound 1 µM; first compound 0.1 µM; hits give low values
Assign viability, T/C to each entry below.

Would you mind giving viability, T/C for every compound in the list below?
1. O=C(c1cc(Cc2n[nH]c(=O)c3ccccc23)ccc1F)N1CCN(C(=O)C2CC2)CC1 + Cc1ccccc1N=Nc1ccc(NC(=O)c2ccnn2C)c(C)c1
2. CC1COCCN1c1cc(C2(S(C)(=N)=O)CC2)nc(-c2ccnc3[nH]ccc23)n1 (centres undefined) + Cc1ccccc1N=Nc1ccc(NC(=O)c2ccnn2C)c(C)c1

**A:**
["109%", "106%"]

Would you mind giving viability, T/C for every compound in the list below?
1. COc1cc(Nc2ncc3c(n2)-c2ccc(Cl)cc2C(c2c(F)cccc2OC)=NC3)ccc1C(=O)O + Cc1cncc(-c2nc(NCCc3c[nH]c4ccccc34)c3ncn(C(C)C)c3n2)c1
2. COc1ccc([C@@H](O)c2cc(-c3ncnc4cc(N5CCOCC5)ccc34)c(F)cc2Cl)nn1 + Cc1cncc(-c2nc(NCCc3c[nH]c4ccccc34)c3ncn(C(C)C)c3n2)c1

**A:**
82.7%
94.5%

Would you mind giving viability, T/C for every compound in the list below?
1. Nc1ncn(C2CC(O)C(CO)O2)c(=O)n1 (centres undefined) + Cc1ccccc1N=Nc1ccc(NC(=O)c2ccnn2C)c(C)c1
2. Nc1ccn(C2OC(CO)C(O)C2(F)F)c(=O)n1 (centres undefined) + Cc1ccccc1N=Nc1ccc(NC(=O)c2ccnn2C)c(C)c1
3. CC1COCCN1c1cc(C2(S(C)(=N)=O)CC2)nc(-c2ccnc3[nH]ccc23)n1 (centres undefined) + CC(CO)NC(=O)c1cc(-c2ccc(Cl)cc2)nn(-c2cnn(C)c2)c1=O
4. COc1cc(Nc2ncc3c(n2)-c2ccc(Cl)cc2C(c2c(F)cccc2OC)=NC3)ccc1C(=O)O + CC(CO)NC(=O)c1cc(-c2ccc(Cl)cc2)nn(-c2cnn(C)c2)c1=O
5. COc1cccc2c1C(=O)c1c(O)c3c(c(O)c1C2=O)CC(O)(C(=O)CO)CC3OC1CC(N)C(O)C(C)O1 (centres undefined) + Cc1cncc(-c2nc(NCCc3c[nH]c4ccccc34)c3ncn(C(C)C)c3n2)c1

**A:**
89.5%
57.4%
139%
77.7%
39.8%

Would you mind giving viability, T/C for every compound in the list below?
1. Cn1ncnc1C1c2n[nH]c(=O)c3cc(F)cc(c23)NC1c1ccc(F)cc1 (centres undefined) + Cc1ccccc1N=Nc1ccc(NC(=O)c2ccnn2C)c(C)c1
2. CC[C@@]1(O)C(=O)OCc2c1cc1n(c2=O)Cc2cc3c(CN(C)C)c(O)ccc3nc2-1 + Cc1cncc(-c2nc(NCCc3c[nH]c4ccccc34)c3ncn(C(C)C)c3n2)c1

**A:**
["66%", "47%"]
